Please go through the items and note down their GI50.
Test system: T47D
method notes: NCI tumour cell line growth inhibition, 48 h
Active and inactive are the calls of the source. Cut-off read from the data, not from the text of the source: active = GI50 up to about 1.1 µM and inactive = higher.

Q: Value lookup for GI50; key = `Oc1c(Br)cc(/C=C/c2ccnc(/C=C/c3cc(Br)c(O)c(Br)c3)c2)cc1Br`
Result: 16.7 µM (inactive)

Q: Value lookup for GI50; key = `O=[N+]([O-])c1ccc(/C=C(/c2ccc([N+](=O)[O-])o2)S(=O)(=O)c2ccccc2)cc1`
Result: > 100 µM (inactive)

Q: Value lookup for GI50; key = `CCOC(=O)c1sc2c(c1OC(=O)c1cccs1)c(=O)n(-c1ccccc1)c(=S)n2-c1ccccc1`
Result: 23.5 µM (inactive)

Q: Value lookup for GI50; key = O=[N+]([O-])c1ccc(C2=NOC(c3ccc(Cl)cc3)N2C23CC4CC(CC(C4)C2)C3)cc1 (stereo not given)
Result: 35.2 µM (inactive)

Q: Value lookup for GI50; key = `Oc1c2cccc1Cc1cccc3c1OCCOCCOCCOCCOc1c(cccc1Cc1cccc(c1O)C3)C2`
Result: > 100 µM (inactive)

Q: Value lookup for GI50; key = CN1CCc2cc3c(c4c2C1C(O)c1ccccc1-4)OCO3 (stereo not given)
Result: 13 µM (inactive)

Q: Value lookup for GI50; key = COC(=O)OC[C@H]1O[C@@H](n2cc(C)c(=O)[nH]c2=O)CC1OC(=O)OC (stereo not given in full)
Result: > 100 µM (inactive)

Q: Value lookup for GI50; key = CCN1CCC(O)(/C=C/c2ccc(C)cc2)C(C(=O)/C=C/c2ccc(C)cc2)C1 (stereo not given)
Result: 2.82 µM (inactive)

Q: Value lookup for GI50; key = CC1C(=O)N(c2ccccc2)NC12CCCc1ccccc12 (stereo not given)
Result: > 100 µM (inactive)

Q: Value lookup for GI50; key = `COc1ccc(/C=N/c2c(O)ccc3ccccc23)cc1OC`
Result: 84.5 µM (inactive)

====

System: U-251
method notes: NCI tumour cell line growth inhibition, 48 h
Activity calls are given as the source filed them. No stated cut-off is given here; in the data, active = GI50 up to about 1.1 µM and inactive = higher.
parameter: GI50

Q: Value lookup for GI50; key = `COCc1nc(N)nc(N2N=C(C)CC2(C)C)n1`
Result: > 100 µM (inactive)

Q: Value lookup for GI50; key = `O=C1C(CO)=C(CO)C(=O)c2c(O)ccc(O)c21`
Result: 2.22 µM (inactive)

Q: Value lookup for GI50; key = `Clc1ccc(-c2nnc(-c3nsc4ccccc34)o2)cc1`
Result: 15.2 µM (inactive)

Q: Value lookup for GI50; key = CC(=O)N1c2ccccc2C23CCN4CC5=CCOC(O)C(C5CC42)C13 (configuration not stated)
Result: > 100 µM (inactive)

Q: Value lookup for GI50; key = `CCOC(=O)c1sc2c(c1OC(=O)c1cccs1)c(=O)n(-c1ccccc1)c(=S)n2-c1ccccc1`
Result: 12.2 µM (inactive)

Q: Value lookup for GI50; key = `O=C1Oc2cc3c(c4cccc1c24)O[C@H](c1ccccc1)[C@@H](c1ccccc1)[C@@H]3c1ccc(Cl)cc1`
Result: 19.6 µM (inactive)

Q: Value lookup for GI50; key = C=C1C(=O)OC2CC3(C)CCCC(C)C3=CC12 (configuration not stated)
Result: 7 µM (inactive)

Q: Value lookup for GI50; key = `CCCCn1c(-c2ccccc2)cs/c1=N\N=C1C=C(C(C)(C)C)C(=O)C(C(C)(C)C)=C1`
Result: > 100 µM (inactive)

Q: Value lookup for GI50; key = `CC(CCC(=O)O)(c1ccc(O)cc1)c1ccc(O)cc1`
Result: > 100 µM (inactive)

Q: Value lookup for GI50; key = `CCCCCCCC(=O)NCC(O)CNC(=O)CCCCCCC`
Result: > 100 µM (inactive)

Q: Value lookup for GI50; key = CN(C)C1(N(C)C)Oc2c(c(=O)n(C)c(=O)n2C)C(c2ccccc2)C1(F)F (configuration not stated)
Result: > 100 µM (inactive)

Q: Value lookup for GI50; key = `C/C(CC(=O)Nc1cccc([N+](=O)[O-])c1)=N/NC(N)=S`
Result: > 100 µM (inactive)

Q: Value lookup for GI50; key = O=C1OC(=O)C2C3CCC(O3)C12 (configuration not stated)
Result: > 100 µM (inactive)

Q: Value lookup for GI50; key = COc1ccc(-c2c3c(n(C4OC(CO)C(O)C(O)C4O)c(=S)c2C#N)CCC3)cc1 (configuration not stated)
Result: 37.1 µM (inactive)

Q: Value lookup for GI50; key = `Nc1c2c(nc3ccccc13)-c1ccccc1CCC2`
Result: 15 µM (inactive)

Q: Value lookup for GI50; key = `CCCCCN(CCCCC)C(=O)[C@@H](CCC(=O)O)NC(=O)c1cc2ccccc2[nH]1`
Result: 29.1 µM (inactive)

Q: Value lookup for GI50; key = c1ccc(C2CC(NC3CCCCC3)=Nc3ccccc3N2)cc1 (configuration not stated)
Result: 56.9 µM (inactive)

Q: Value lookup for GI50; key = `COc1ccc(/C=N/n2c(C)nc3c(sc(=S)n3-c3ccccc3)c2=O)cc1`
Result: > 100 µM (inactive)

Q: Value lookup for GI50; key = `COC(=O)c1c(O)ccc2c1c1c(n2Cc2ccccc2OC)C(=O)c2ccccc2C1`
Result: 63.4 µM (inactive)

Q: Value lookup for GI50; key = `COc1ccc(Oc2nc3ccc(C(F)(F)F)cc3nc2-c2ccccc2)cc1`
Result: > 100 µM (inactive)

Q: Value lookup for GI50; key = COC1OC(CS(=O)(=O)O)C(O)C(O)C1O (configuration not stated)
Result: > 100 µM (inactive)

Q: Value lookup for GI50; key = `O=C1CC(=O)N(CCc2ccccc2)S(=O)(=O)N1CCc1ccccc1`
Result: 16.9 µM (inactive)

====

System: MOLT-4
method notes: NCI tumour cell line growth inhibition, 48 h
Active and inactive are the calls of the source. Rule as the data show it: active = GI50 up to about 1.1 µM and inactive = higher.
In this exercise, the only acceptable responses are active, inactive

Q: Recorded call for `CCN(CC)C(=O)c1cc(OC(C)C)ccc1-c1c(C)cc(OC(C)C)c(OC)c1OC` ?
Result: inactive

Q: Recorded call for `COc1cc(/C=C\c2ccc(OC(C)=O)cc2)cc(OC)c1OC` ?
Result: inactive

Q: Recorded call for `O=C(O)c1ccc(NCc2nc3cc4ccccc4cc3[nH]2)cc1` ?
Result: inactive

Q: Recorded call for CC(N/N=C(\S)N1CCN(c2ccccn2)CC1)c1cccc[n+]1[O-] (stereo unspecified) ?
Result: inactive

Q: Recorded call for `COc1ccc(C(=O)/C=C/c2ccc(OCCCOc3ccc(/C=C/C(=O)c4ccc(OC)c(OC)c4)cc3)cc2)cc1OC` ?
Result: inactive

Q: Recorded call for Cc1ccc(S(=O)(=O)N/N=C(\c2nc3ccc([N+](=O)[O-])cc3[nH]c2=O)C(O)c2ccc([N+](=O)[O-])cc2)cc1 (stereo unspecified) ?
Result: inactive

Q: Recorded call for `O=C1c2ccccc2C(=O)c2cc3c(cc21)C[S+]([O-])C3` ?
Result: inactive

Q: Recorded call for `CCOC(=O)c1cc2cc(Cc3ccc4[nH]c(C(=O)OCC)cc4c3)ccc2[nH]1` ?
Result: inactive

Q: Recorded call for CCN1CCC(O)(/C=C/c2ccc(C)cc2)C(C(=O)/C=C/c2ccc(C)cc2)C1 (stereo unspecified) ?
Result: inactive

Q: Recorded call for `CCN(CC)CCNC(=O)c1cc2cc(NC(=O)c3cc4cc([N+](=O)[O-])ccc4[nH]3)ccc2[nH]1` ?
Result: inactive

Q: Recorded call for CCC(=O)N/S(=N/S(=O)(=O)c1ccccc1)C(Cl)(Cl)Cl (stereo unspecified) ?
Result: inactive

Q: Recorded call for `O=C(CSc1nc2ccc(I)cc2c(=O)n1Cc1ccccc1)NN1C(=O)CCC1=O` ?
Result: inactive

Q: Recorded call for `COc1ccc(/C=C(/C)[N+](=O)[O-])cc1` ?
Result: inactive

Q: Recorded call for COC(=O)C1CC2C=CC1N(C(=O)OCc1ccccc1)C2 (stereo unspecified) ?
Result: inactive

Q: Recorded call for `[N-]=[N+]=Nc1c(Cc2ccccc2)c(=O)oc2ccccc12` ?
Result: inactive

Q: Recorded call for `C=CCNc1nc2c(s1)C(=O)c1ccccc1C2=O` ?
Result: inactive

Q: Recorded call for `COc1ccc2nc3cc([N+](=O)[O-])ccc3c(Nc3ccc(S(=O)(=O)N=C(N)N)cc3)c2c1` ?
Result: inactive

Q: Recorded call for `COc1cc(OC)c(OC)cc1/C=C/c1nc2ccccc2s1` ?
Result: inactive

Q: Recorded call for COc1ccc(C2S/C(=C\c3cc(OC)c(OC)c(OC)c3)C(=O)N2NC(=O)Cc2ccccc2)cc1 (stereo unspecified) ?
Result: inactive

Q: Recorded call for `Oc1cccc2cc(Cl)cnc12` ?
Result: inactive

Q: Recorded call for COC(=O)C(Cc1ccccc1)NP(=O)(O)OCC1OC(n2ccc(N)nc2=O)C(O)C1O (stereo unspecified) ?
Result: inactive

Q: Recorded call for `CS[C@]12[C@@H]3C(=O)N(C)C(=O)[C@@H]3[C@](C)(C(=O)N1C)C(=O)N2c1ccccc1` ?
Result: inactive

Q: Recorded call for `[O-][Cl+3]([O-])([O-])[O-].c1ccc(-c2csc3c4ccccc4c4ccccc4[n+]23)cc1` ?
Result: inactive

Q: Recorded call for Nc1ccn(CCOC(c2ccccc2)P(=O)(O)O)c(=O)n1 (stereo unspecified) ?
Result: inactive

Q: Recorded call for `COC(=O)CSc1cc(Cl)c(C)cc1S(=O)(=O)Nc1n[nH]c(N)n1` ?
Result: inactive

Q: Recorded call for `CCOC(=O)c1sc2c(c1OC(=O)c1cccs1)c(=O)n(-c1ccccc1)c(=S)n2-c1ccccc1` ?
Result: inactive

Q: Recorded call for `COc1cc2ccc(CC(N)=O)cc2cc1OC` ?
Result: inactive

Q: Recorded call for `O=c1ccc2cc3ccc4cccc5ccc(c2o1)c3c45` ?
Result: inactive

Q: Recorded call for `O=C1c2cccnc2-c2nccc3c2c1nc1cc(Br)ccc13` ?
Result: active

Q: Recorded call for `COc1cc([C@@H]2c3cc4c(cc3[C@@H](Nc3ccc(NC(=O)c5cc([N+](=O)[O-])cn5C)cc3)[C@H]3COC(=O)[C@H]23)OCO4)cc(OC)c1O` ?
Result: active

Q: Recorded call for `OCCN(CCO)c1cccc(N(CCO)CCO)n1` ?
Result: inactive

Q: Recorded call for COC(=O)C1Cc2ccc3c(c2C1=O)CCCC3 (stereo unspecified) ?
Result: inactive

Q: Recorded call for `CC1=C(C(=O)Nc2ccccc2)C(c2ccc([N+](=O)[O-])cc2)C(C(=O)Nc2ccccc2)=C(C)N1` ?
Result: inactive

Q: Recorded call for CCOC(=O)C(C)(Cc1ccc(O)cn1)NC(=O)c1ccccc1 (stereo unspecified) ?
Result: inactive

Q: Recorded call for CCC1(OC(=O)CN)C(=O)OCc2c1cc1n(c2=O)Cc2cc3ccccc3nc2-1 (stereo unspecified) ?
Result: active

Q: Recorded call for `N#C[C@H](C(=O)c1ccccc1F)c1nc2ccccc2[nH]1` ?
Result: inactive

Q: Recorded call for `Cc1nc(SCC(N)=O)c2sc(=S)n(-c3ccccc3)c2n1` ?
Result: inactive

Q: Recorded call for `CCn1c(=O)nc2n(-c3ccccc3)c3ccccc3nc-2c1=O` ?
Result: inactive

Q: Recorded call for `COC(=O)c1ccc(CCc2cc(O)ccc2O)cc1` ?
Result: inactive

Q: Recorded call for `CC(CCC(=O)O)(c1ccc(O)cc1)c1ccc(O)cc1` ?
Result: inactive

Q: Recorded call for `CC(=O)Nc1ccc(-c2nc3ccccc3s2)cc1I` ?
Result: inactive
